- MEASUREMENT DESCRIPTION: yeast display, Sf9 membrane polyspecificity reagent, FACS + sequencing; frameworks hold sequencing errors
PARAMETER: polyreactivity (PSR sort gate)

# count of solved cases: 4
CONSTRUCT SEQUENCE	PARAMETER	ASSAY RESULT
QVQLVESGGGLVQAGGSLRLSCAASGFTFIRYAMGWYRQAPGKERELVASISNRGGRTYYADSVKGRFTISRDNAKNTVYLQMNSLKPEDTAVYYCAAGYSTYRAVWTDNNYWGQGTQVTVSS	polyreactivity (PSR sort gate)	high polyreactivity
QVQLVESGGGLLQAGGSLRVSCAASGSIIFFYAMGWYRQAPGKERELVAAISKSPSSTYYADSVKGRFTISRDNAKNTVYLQMNSLKPEDTAVYYCNTGYSGIQYYYWGQGTQVTVSS	polyreactivity (PSR sort gate)	low polyreactivity
QVQLVESGGGLVQAGGSLRLSCAASGLIFGWNAMGGYRQAPGKERELVAAINSGGITNYADSVKGRFTISRDNAKNTVYLQMYSLKPDDTEVYYCAADVVQYGLDWYGEEYESWGQGTQVTVSS	polyreactivity (PSR sort gate)	low polyreactivity
QVQLVESGGGLVQAGGSLRLSCAASGYTLYLNAMGWYRQAPGKERELFARISGGGSTNYADSVKGRFTISRDNAKNTVYLQMNSLKPEDTAVYYCAATIFAYGYRSFKLDYWGQGTQVTVSS	polyreactivity (PSR sort gate)	low polyreactivity

For the next question, use this sequence.
Request: Please give the documented polyreactivity (PSR sort gate) of QVQLVESGGGLVKAGCSLRLSCAASGRIFIVNAMGWYRQAPGKERELVAAISGSGGRTYYADSVKGRFTNSRDNAKNTVYLQMNSLKPEVTAVYYCAAVLRTQPRRYDYWGQGTQVTVSS
Result: high polyreactivity

###

- MEASUREMENT DESCRIPTION: yeast display, Sf9 membrane polyspecificity reagent, FACS + sequencing; frameworks hold sequencing errors
PARAMETER: polyreactivity (PSR sort gate)

Would you please look over these solved cases?
CONSTRUCT SEQUENCE	polyreactivity (PSR sort gate)
QVQLVESGGGLVQAGGSLRLSCAASGSTLGYYVMGWYRQAPGKERELVAAITGGGSTDYADSVKGRFTISRDNAKNTVYLQMNSLIPEDTAVYYCAAERTRTGQLFWWGPIYDYWGQGTQVTVSS	low polyreactivity
QVQLVESGGGLVQAGGSLRLSCAASGGTFRRYAMGWSRQAPGKERELVAAITRSGTNTYYADSVKGRFTISRDNAKNTVYLQMNSLNPEDTAVYYCAADGFGKYWGQGTQVTVSS	high polyreactivity
QVQLVESGGGLVQAGGSLRLSCAAYGGTFYRYAMGWYRQAPGKERELVAVISKRGGTTYYADSVKGRFTISRDNAKNTVYLQMNSLKPEDTAVYYCADRPYYWGQGTQVTVSS	high polyreactivity
QVQLVESGGGLVQAGGSLRLSCAASGRIFRGYAMGWSRQAPGKERELVAAITSRGGSTYADSVKGRFTISRDNAKNTVYLQMNSLKPEDTAVYYCNAGYRADSSKLVFRGYPRYDYWGQGTQVTVSS	low polyreactivity

Please find the next sequence below.
Request: Return value of polyreactivity (PSR sort gate) for input QVQLVESGGGLVQAGGSLRLSCAASGFTIYLYTMGWYRQAPGKERELVATISWSGGSTYYADSVKGRFTISRDNAKNNVYLHMNSLKPEDTAVYYCAKAYNGRYTWRYDYWGQGTQVTVSS , no commentary.
Result: high polyreactivity
